biological target: HPK full length, T165E S171E (Homo sapiens (Human), UniProt Q92918, S171E/T165E); assay: HPK1-FL HTRF enzymatic assay ("HTRF"); format: biochemical; conditions: ATP 1 mM, read-out: HPK1 Ki
Sequence (Q92918 whole entry T165E/S171E, looked up): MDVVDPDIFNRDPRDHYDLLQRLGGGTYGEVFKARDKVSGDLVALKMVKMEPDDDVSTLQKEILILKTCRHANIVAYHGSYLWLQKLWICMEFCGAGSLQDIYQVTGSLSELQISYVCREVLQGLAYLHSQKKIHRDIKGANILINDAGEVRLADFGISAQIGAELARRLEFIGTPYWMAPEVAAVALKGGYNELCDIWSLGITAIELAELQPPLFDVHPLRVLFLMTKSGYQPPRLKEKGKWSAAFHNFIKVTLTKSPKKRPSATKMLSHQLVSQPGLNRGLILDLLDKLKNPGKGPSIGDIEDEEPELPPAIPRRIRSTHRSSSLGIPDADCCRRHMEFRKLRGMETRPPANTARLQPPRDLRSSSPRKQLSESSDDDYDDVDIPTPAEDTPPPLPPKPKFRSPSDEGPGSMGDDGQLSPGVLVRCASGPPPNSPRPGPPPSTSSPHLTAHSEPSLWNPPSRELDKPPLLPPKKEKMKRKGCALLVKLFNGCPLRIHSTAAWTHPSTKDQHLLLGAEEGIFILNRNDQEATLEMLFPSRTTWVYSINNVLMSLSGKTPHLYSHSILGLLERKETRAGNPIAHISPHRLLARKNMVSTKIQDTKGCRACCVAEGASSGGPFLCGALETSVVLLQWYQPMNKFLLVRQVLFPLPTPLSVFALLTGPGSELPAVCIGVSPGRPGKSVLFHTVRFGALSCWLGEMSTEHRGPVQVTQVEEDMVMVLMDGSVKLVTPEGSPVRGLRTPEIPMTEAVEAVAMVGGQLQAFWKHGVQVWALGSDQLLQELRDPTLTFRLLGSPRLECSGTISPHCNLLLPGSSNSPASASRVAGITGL
pKi: −log10 of the molar value. Where a name gives a salt, the structure may show the parent alone.
value_kind: pKi

>>> endpoint_result("Cc1c(-c2cc3cc(NC(=O)O[C@@H]4CCN(C5COC5)C[C@H]4F)ncc3c(N)c2F)cnc2c1NCCO2 (relative stereo) [Compound 445ab]")
"> 10.89"
>>> endpoint_result("Cc1c(-c2cc3cc(NC(=O)N[C@@H]4CC[C@H](C#N)C4)ncc3c(N)c2F)cnc2c1NCCO2 (single isomer, unassigned) [Compound 726a]")
"> 10.89"
>>> endpoint_result("Cc1c(-c2cc3cc(NC(=O)O[C@H]4C[C@@H](O)C4)ncc3c(N)c2F)cnc2c1NCCC2 [Compound 553a]")
"> 10.89"
>>> endpoint_result("Cc1c(-c2cc3cc(NC(=O)NC4CC5(C4)CN(CC(F)(F)F)C5)ncc3c(N)c2F)cnc2c1NCCO2")
"> 10.89"
>>> endpoint_result("Cc1c(-c2cc3cc(NC(=O)N[C@H]4C[C@@]5(CCOC5)C4)ncc3c(N)c2F)cnc2c1NCCC2 [Compound 740b]")
"> 10.89"
>>> endpoint_result("Cc1c(-c2cc3cc(NC(=O)OC4CC5(C4)CN(CC(F)F)C5)ncc3c(N)c2F)cnc2c1NCCO2")
"> 10.89"
>>> endpoint_result("Cc1c(-c2cc3cc(NC(=O)OC4C5COCC4CN(C)C5)ncc3c(N)c2F)cnc2c1NCCO2 (single isomer, unassigned) [Compound 439a]")
"> 10.89"
>>> endpoint_result("Cc1c(-c2cc3cc(NC(=O)O[C@@H]4COC[C@H]4C)ncc3c(N)c2F)cnc2c1NCCO2 (single isomer, unassigned) [Compound 441a]")
"> 10.89"
>>> endpoint_result("Cc1c(-c2cc3cc(NC(=O)O[C@H]4C[C@@H](C#N)C4)ncc3c(N)c2F)cnc2c1NCCO2 [Compound 484a]")
"> 10.89"
>>> endpoint_result("Cc1c(-c2cc3cc(NC(=O)O[C@H]4C[C@@H](C(=O)N5CCC5)C4)ncc3c(N)c2F)cnc2c1NCCO2 [Compound 517a]")
"> 10.89"
>>> endpoint_result("CC(=O)N1CC2(CC(OC(=O)Nc3cc4cc(-c5cnc6c(c5C)NCCO6)c(F)c(N)c4cn3)C2)C1")
"> 10.89"
>>> endpoint_result("CCc1c(-c2cc3cc(NC(=O)O[C@H]4COC[C@@H]4C)ncc3c(N)c2F)cnc2c1NCCO2 (single isomer, unassigned) [Compound 555a, hydrochloride]")
"> 10.89"
>>> endpoint_result("Cc1c(-c2cc3cc(NC(=O)O[C@@H]4COC[C@H]4F)ncc3c(N)c2F)cnc2c1NCCO2 [Compound 477a]")
10.47
>>> endpoint_result("Cc1c(-c2cc3cc(NC(=O)O[C@@H]4CO[C@@]5(CCN(C)C5)C4)ncc3c(N)c2F)cnc2c1NCCO2 (single isomer, unassigned) [Compound 467a]")
10.51
>>> endpoint_result("Cc1c(-c2cc3cc(NC(=O)O[C@H]4[C@@H]5CN(S(C)(=O)=O)C[C@@H]54)ncc3c(N)c2F)cnc2c1NCCO2 [Compound 522a]")
"> 10.89"
>>> endpoint_result("Cc1c(-c2cc3cc(NC(=O)O[C@H]4CC[C@@](C)(O)C4)ncc3c(N)c2F)cnc2c1NCCO2 (single isomer, unassigned) [Compound 533c, hydrochloride]")
10.85

----------
biological target: HPK full length, T165E S171E (Homo sapiens (Human), UniProt Q92918, S171E/T165E); test: HPK1-FL HTRF enzymatic assay ("HTRF"); type: biochemical; settings: ATP 1 mM, read-out: HPK1 Ki
pKi: −log10 of the molar value.
Parameter pKi: see the listing below.
value_kind: pKi

>>> endpoint_result("CCc1c(-c2cc3cc(NC(=O)O[C@@H]4CC(=O)N(C)C4)ncc3c(N)c2F)cnc2c1NCCO2 (single isomer, unassigned) [Compound 444a]")
"> 10.89"
>>> endpoint_result("Cc1c(-c2cc3cc(NC(=O)O[C@H]4CCO[C@H]4C)ncc3c(N)c2F)cnc2c1NCCO2 (single isomer, unassigned) [Compound 510c]")
"> 10.89"
>>> endpoint_result("Cc1c(-c2cc3cc(NC(=O)OC4CC5(CCN(C6COC6)CC5)C4)ncc3c(N)c2F)cnc2c1NCCC2 [Compound 430]")
"> 10.89"

----------
biological target: HPK full length, T165E S171E (Homo sapiens (Human), UniProt Q92918, S171E/T165E); assay: HPK1-FL HTRF enzymatic assay ("HTRF"); type: biochemical; conditions: ATP 1 mM, read-out: HPK1 Ki
Parameter Ki: see the listing below.
value_kind: Ki

>>> endpoint_result("Cc1c(-c2cc3cc(NC(=O)O[C@@H]4Cc5nccn5C4)ncc3c(N)c2F)cnc2c1NCCO2 (single isomer, unassigned) [Compound 504a]")
"< 13 pM"
>>> endpoint_result("Cc1c(-c2cc3cc(NC(=O)O[C@H]4C[C@@H](C(=O)N(C)C)C4)ncc3c(N)c2F)cnc2c1NCCO2 [Compound 519a]")
"< 13 pM"
>>> endpoint_result("Cc1c(-c2cc3cc(NC(=O)N[C@H]4C[C@]5(CCOC5)C4)ncc3c(N)c2F)cnc2c1NCCC2 [Compound 740a]")
"< 13 pM"

----------
assay: Permeability assay in gMDCKI cells; type: in vitro ADME, canine; conditions: dog, MDCK, apical-to-basolateral, 2-hour incubation, read-out: MDCK AB Papp
value_kind: Papp at 2 h, 10 μM (×10⁻⁶ cm/s)

>>> endpoint_result("Cc1c(-c2cc3cc(NC(=O)OC4CCOCC4)ncc3c(N)c2F)cnc2c1NCCO2 [Compound 401]")
18
>>> endpoint_result("Cc1c(-c2cc3cc(NC(=O)N4CC(C)(F)C4)ncc3c(N)c2F)cnc2c1NCCO2 [Compound 755]")
10
>>> endpoint_result("Cc1c(-c2cc3cc(NC(=O)O[C@@H]4CCOC4)ncc3c(N)c2F)cnc2c1NCCO2 [Compound 403a]")
10
>>> endpoint_result("Cc1c(-c2cc3cc(NC(=O)O[C@H]4C[C@H](C#N)C4)ncc3c(N)c2F)cnc2c1NCCO2 [Compound 484b]")
19
>>> endpoint_result("CCc1c(-c2cc3cc(NC(=O)O[C@@H]4COC[C@H]4C)ncc3c(N)c2F)cnc2c1NCCO2.Cl (single isomer, unassigned) [Compound 555b]")
15

----------
target: HPK full length, T165E S171E (Homo sapiens (Human), UniProt Q92918, S171E/T165E); test: HPK1-FL HTRF enzymatic assay ("HTRF"); assay type: biochemical; conditions: ATP 1 mM, read-out: HPK1 Ki
Structures can show the parent of a compound that is named as a salt.
Parameter Ki: see the listing below.
value_kind: Ki (nM)

>>> endpoint_result("Cc1c(-c2cc3cc(NC(=O)O[C@@H]4CCO[C@@H]4C)ncc3c(N)c2F)cnc2c1NCCO2 (single isomer, unassigned) [Compound 510d]")
0.016
>>> endpoint_result("Cc1c(-c2cc3cc(NC(=O)O[C@H]4COC[C@@H]4C)ncc3c(N)c2F)cnc2c1NC(=O)CO2 (single isomer, unassigned) [Compound 558a, hydrochloride]")
0.9
>>> endpoint_result("Cc1c(-c2cc3cc(NC(=O)O[C@H]4C[C@@H]([C@H](C)O)C4)ncc3c(N)c2F)cnc2c1NCCO2 (single isomer, unassigned) [Compound 573a]")
0.015

----------
molecular target: HPK full length, T165E S171E (Homo sapiens (Human), UniProt Q92918, S171E/T165E); experiment: HPK1-FL HTRF enzymatic assay ("HTRF"); type: biochemical; settings: ATP 1 mM, read-out: HPK1 Ki
Parameter Ki: see the listing below.
value_kind: Ki

>>> endpoint_result("Cc1c(-c2cc3cc(NC(=O)OC4CCN(C)CC4F)ncc3c(N)c2F)cnc2c1NCCO2 (single isomer, unassigned) [Compound 433]")
"< 13 pM"
>>> endpoint_result("Cc1c(-c2cc3cc(NC(=O)O[C@H]4C[C@@H](C#N)C4)ncc3c(N)c2F)cnc2c1NCCC2 [Compound 483a]")
"< 13 pM"
>>> endpoint_result("Cc1c(-c2cc3cc(NC(=O)O[C@H]4C[C@H](C(C)(C)C#N)C4)ncc3c(N)c2F)cnc2c1NCCO2 [Compound 549b]")
"< 13 pM"

----------
molecular target: HPK full length, T165E S171E (Homo sapiens (Human), UniProt Q92918, S171E/T165E); assay: HPK1-FL HTRF enzymatic assay ("HTRF"); type: biochemical; conditions: ATP 1 mM, read-out: HPK1 Ki
Parameter Ki: see the listing below.
value_kind: Ki

>>> endpoint_result("Cc1c(-c2cc3cc(NC(=O)N[C@H]4CCC[C@H]4O)ncc3c(N)c2F)cnc2c1NCCO2 (relative stereo) [Compound 728a]")
"< 0.013 nM"
>>> endpoint_result("Cc1c(-c2cc3cc(NC(=O)O[C@@H]4CCO[C@H]4C)ncc3c(N)c2F)cnc2c1NCCO2 (racemic) [Compound 510a]")
"0.395 nM"
>>> endpoint_result("Cc1c(-c2cc3cc(NC(=O)O[C@H]4C[C@H](CO)C4)ncc3c(N)c2F)cnc2c1NCCO2 [Compound 571a]")
"0.014 nM"
>>> endpoint_result("Cc1c(-c2cc3cc(NC(=O)OC4CC5(CCN(C)CC5)C4)ncc3c(N)c2F)cnc2c1NCCO2 [Compound 427]")
"< 0.013 nM"
>>> endpoint_result("Cc1c(-c2cc3cc(NC(=O)OC4CCN(C5COC5)CC4)ncc3c(N)c2F)cnc2c1NCCO2 [Compound 421]")
"< 0.013 nM"
>>> endpoint_result("Cc1c(-c2cc3cc(NC(=O)OC4CN(CC(F)F)C4)ncc3c(N)c2F)cnc2c1NCCO2 [Compound 434]")
"< 0.013 nM"
>>> endpoint_result("Cc1c(-c2cc3cc(NC(=O)O[C@H]4C[C@@H](CO)C4)ncc3c(N)c2F)cnc2c1NCCO2 [Compound 571b]")
"< 0.013 nM"
>>> endpoint_result("Cc1c(-c2cc3cc(NC(=O)OC4CC(O)C4)ncc3c(N)c2F)cnc2c1NC[C@@H](C)C2 (single isomer, unassigned) [Compound 560a]")
"0.019 nM"
